- experiment: Particle size and polydispersity of LNP containing pro-drug (dynamic light scattering)
- Format: physicochemical
- protocol.conditions: LNP; pro-drug concentration 99 %
Lab note: anything with PdI at or over 0.03 counts as Yes; the rest go in No.

Some entries whose results are on file:
CCCCCCCCCCCCCCCCCC(=O)O[C@@H](C/C=C\CCCCCCCCOC(=O)CCC(=O)OCC(=O)[C@@]1(O)[C@H](C)C[C@H]2[C@@H]3CCC4=CC(=O)C=C[C@]4(C)[C@@]3(F)[C@@H](O)C[C@@]21C)CCCCCC
No
CCCCCCCCC(OC(=O)CCCCC)C(CCCCCCCC(=O)OCC(=O)[C@@]1(O)[C@H](C)C[C@H]2[C@@H]3CCC4=CC(=O)C=C[C@]4(C)[C@@]3(F)[C@@H](O)C[C@@]21C)OC(=O)CCCCC (stereo partly shown)
No
CCCCC/C=C\C/C=C\CCCCCCCC(=O)O[C@@H](C/C=C\CCCCCCCCOC(=O)CC/C(C)=C/Cc1c(O)c2c(c(C)c1OC)COC2=O)CCCCCC
No
CCCCCC[C@H](C/C=C\CCCCCCCCOC(=O)CC/C(C)=C/Cc1c(O)c2c(c(C)c1OC)COC2=O)OC(=O)CCCCC
No
CCCCC/C=C\C/C=C\C/C=C\C/C=C\CCCC(=O)O[C@@H](C/C=C\CCCCCCCCOC(=O)CCC(=O)OCC(=O)[C@@]1(O)[C@H](C)C[C@H]2[C@@H]3CCC4=CC(=O)C=C[C@]4(C)[C@@]3(F)[C@@H](O)C[C@@]21C)CCCCCC
No

Proceed to the following item.
q: API: above_or_equal(metric=PdI, cutoff=0.03) for item CCCCCC[C@H](C/C=C\CCCCCCCCOC(=O)c1ccccc1OC(C)=O)OC(=O)CCCCC
a: Yes

====

We begin with a simple list: items and their reported Particle Diameter (nm).
- experiment: Particle size and polydispersity of LNP containing pro-drug (dynamic light scattering)
- Assay type: physicochemical
- protocol.conditions: LNP containing 10 mol % conjugate; primary PC-lipid DMPC
Kindly write the number and append the unit.

Known Particle Diameter (nm) results, listed for orientation:
CC/C=C\C/C=C\C/C=C\CCCCCCCC(=O)O[C@@H](C/C=C\CCCCCCCCOC(=O)CCC(=O)OCC(=O)[C@@]1(O)[C@H](C)C[C@H]2[C@@H]3CCC4=CC(=O)C=C[C@]4(C)[C@@]3(F)[C@@H](O)C[C@@]21C)CCCCCC
68 nm
CCCCCCCC/C=C\CCCCCCCC(=O)O[C@@H](C/C=C\CCCCCCCCOC(=O)CCC(=O)OCC(=O)[C@@]1(O)[C@H](C)C[C@H]2[C@@H]3CCC4=CC(=O)C=C[C@]4(C)[C@@]3(F)[C@@H](O)C[C@@]21C)CCCCCC
67 nm
CCCCC/C=C\C/C=C\CCCCCCCC(=O)O[C@@H](C/C=C\CCCCCCCCOC(=O)CCC(=O)OCC(=O)[C@@]1(O)[C@H](C)C[C@H]2[C@@H]3CCC4=CC(=O)C=C[C@]4(C)[C@@]3(F)[C@@H](O)C[C@@]21C)CCCCCC
68 nm

Kindly consider the entry below.
q: Would you kindly share the measured Particle Diameter (nm) for CCCCC/C=C\C/C=C\C/C=C\C/C=C\CCCC(=O)O[C@@H](C/C=C\CCCCCCCCOC(=O)CCC(=O)OCC(=O)[C@@]1(O)[C@H](C)C[C@H]2[C@@H]3CCC4=CC(=O)C=C[C@]4(C)[C@@]3(F)[C@@H](O)C[C@@]21C)CCCCCC ?
a: 65 nm

These measurements were taken from patent US20220226480A1.
